Target: Cellular tumor antigen p53 (Homo sapiens)
Assay: TOX21_p53_BLA_p2_ratio: Tox21 HCT-116 p53 Agonism Beta-lactamase Assay, Ratio, Phase 2 (AID 2283592)
Inconclusive results are not listed. Active and inactive are the calls of the source. How the source made its calls: active means hit-call score of the fitted dose curve at least 0.9, where 1 is the maximum; inconclusive means response in the unintended direction; inactive means score below 0.9.
Measurement Kind: outcome

Completed entries (count: 4):
QUERY: Identify the reported outcome for the following entry. CN1CCc2c(c3ccccc3n2Cc2ccccc2)C1
RESULT: inactive

QUERY: Identify the reported outcome for the following entry. S=C=Nc1ccc(N=C=S)cc1
RESULT: inactive

QUERY: Identify the reported outcome for the following entry. Cc1cc(=O)c(C(=O)N[C@@H](C(=O)N[C@@H]2C(=O)N3C(C(=O)O)=C(CSc4nnnn4C)CS[C@H]23)c2ccc(O)cc2)c[nH]1
RESULT: inactive

QUERY: Identify the reported outcome for the following entry. CCC(CO)(CO)CO
RESULT: inactive

Kindly consider the entry below.
QUERY: Identify the reported outcome for the following entry. O=C[C@H](O)[C@@H](O)[C@H](O[C@H]1O[C@H](CO)[C@@H](O[C@H]2O[C@H](CO)[C@@H](O)[C@H](O)[C@H]2O)[C@H](O)[C@H]1O)[C@H](O)CO
RESULT: inactive

----------
Molecular target: Cellular tumor antigen p53 (Homo sapiens) (UniProt P04637)
Sequence (P04637 whole entry, looked up): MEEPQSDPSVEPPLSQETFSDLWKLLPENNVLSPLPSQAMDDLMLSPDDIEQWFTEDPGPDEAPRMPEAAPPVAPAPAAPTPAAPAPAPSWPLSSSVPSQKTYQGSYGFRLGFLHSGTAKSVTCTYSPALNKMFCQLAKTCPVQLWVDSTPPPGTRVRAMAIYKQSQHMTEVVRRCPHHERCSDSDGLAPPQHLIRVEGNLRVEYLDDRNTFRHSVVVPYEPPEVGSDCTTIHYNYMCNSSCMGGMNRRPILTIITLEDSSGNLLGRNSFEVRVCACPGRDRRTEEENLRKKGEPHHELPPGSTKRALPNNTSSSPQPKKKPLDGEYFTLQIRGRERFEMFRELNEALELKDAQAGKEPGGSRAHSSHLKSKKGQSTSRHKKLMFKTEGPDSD
Test: TOX21_p53_BLA_p2_ratio: Tox21 HCT-116 p53 Agonism Beta-lactamase Assay, Ratio, Phase 2 (AID 2283592)
Inconclusive results are not listed. Activity calls are given as the source filed them. Rule for the calls: active = hit-call score of the fitted dose curve at least 0.9, where 1 is the maximum; inconclusive = response in the unintended direction; inactive = score below 0.9.
Your response should consist of one outcome taken from 1 = active, 0 = inactive

Would you please look over these solved cases?
QUERY: What call does the record list for CCOC(=O)CC(=O)C(=O)OCC ?
RESULT: 0

QUERY: What call does the record list for COC(=O)CC[C@H](N)C(=O)O ?
RESULT: 0

QUERY: What call does the record list for FC(F)(F)c1ccccc1-n1ccnc1 ?
RESULT: 0

QUERY: What call does the record list for [O]=[Bi][O][Bi]=[O] ?
RESULT: 0

QUERY: What call does the record list for Cc1ccccc1N1C(=O)c2cc(S(N)(=O)=O)c(Cl)cc2NC1C (centres undefined) ?
RESULT: 0

QUERY: What call does the record list for CC(=O)Nc1cccc(N)c1 ?
RESULT: 1

Continuing:
QUERY: What call does the record list for C=CC[N@@+]12CC[C@@]34c5ccccc5N5/C=C6/[C@H]7C[C@H]8[C@@]9(CC[N@@+]8(CC=C)C/C7=C/CO)c7ccccc7N(/C=C(/[C@@H](C[C@@H]31)/C(=C\CO)C2)[C@H]54)[C@@H]69 ?
RESULT: 0

QUERY: What call does the record list for O=C1c2ccccc2C(=O)N1CO ?
RESULT: 0

QUERY: What call does the record list for C1COCCO1 ?
RESULT: 0

----------
Experiment: CCTE_Shafer_MEA_dev_per_burst_interspike_interval: CCTE's Neural Network Formation Assay for Burst Interspike Interval, Shafer Lab (AID 2284044);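 further: mean spike spacing inside bursts as AUC over recordings on days 5 7 9 12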
The source made the active and inactive calls. Rule for the calls: active = hit-call score of the fitted dose curve at least 0.9, where 1 is the maximum; inactive = score below 0.9.
Your response should consist of one outcome taken from active, inactive

QUERY: What call does the record list for CCc1ccccc1 ?
RESULT: inactive

QUERY: What call does the record list for C[C@@H]1CCO[C@H]2Cn3cc(C(=O)NCc4ccc(F)cc4F)c(=O)c(O)c3C(=O)N12 ?
RESULT: active

QUERY: What call does the record list for O=C1CC2(CCCC2)CC(=O)N1CCCCN1CCN(c2ncccn2)CC1 ?
RESULT: active

QUERY: What call does the record list for CC(CNC(=S)[S-])NC(=S)[S-].[Zn+2] (stereo not drawn) ?
RESULT: active

QUERY: What call does the record list for C[C@@H]1CC[C@@H](C(C)(C)O)[C@H](O)C1 ?
RESULT: inactive

Continuing:
QUERY: What call does the record list for CC(=O)N[C@@H](CC(=O)O)C(=O)O ?
RESULT: inactive

QUERY: What call does the record list for F ?
RESULT: inactive

QUERY: What call does the record list for Brc1cc(Br)c(Oc2cc(Br)c(Br)cc2Br)cc1Br ?
RESULT: inactive

QUERY: What call does the record list for CC(C)O ?
RESULT: active

QUERY: What call does the record list for CCCCCC(C)(CC)C(=O)NC (stereo not drawn) ?
RESULT: inactive

QUERY: What call does the record list for c1cc2c3c(c1)ccc1cccc(c13)C2 ?
RESULT: inactive

QUERY: What call does the record list for CC(C)c1nn(C(=O)NC(C)(C)C)c(=O)n1N ?
RESULT: inactive

QUERY: What call does the record list for Cc1[nH]n(C)c(=O)c1C(=O)c1ccc(C(F)(F)F)cc1S(C)(=O)=O ?
RESULT: inactive
